Decision: melting point compared against 100 °C; not below it gives met, below it gives not met.

Ask: Does the molecule OC1CCCCC1 have recorded melting point that is 100 °C or more?
Result: not met

Ask: Thanks! And CN(C)CCCN1c2ccccc2CCc2ccc(Cl)cc21 ?
Result: met

Ask: Thanks! And CCCCCSC ?
Result: not met

Ask: Thanks! And CC(=O)Nc1c(I)c(NC(C)=O)c(I)c(C(=O)[O-])c1I.[Na+] ?
Result: met

Ask: Thanks! And CCCC/C=C/CCCCC ?
Result: not met

Ask: Thanks! And CCc1ccc(Br)cc1 ?
Result: not met

Ask: Thanks! And CCCCCCCC(=O)Cl ?
Result: not met

Ask: Thanks! And CC1=C(C(=O)Nc2ccccc2)SCCO1 ?
Result: not met

Ask: Thanks! And COC(=O)COc1ccc(Cl)cc1Cl ?
Result: met

Ask: Thanks! And O=C(O)C(Br)(Br)Br ?
Result: met

Ask: Thanks! And O=C(O)c1ccc2c(c1)C(=O)c1ccccc1C2=O ?
Result: met

Ask: Thanks! And CN(C)c1ccc(Cl)cc1 ?
Result: not met

Ask: Thanks! And CCCCCCCCOc1ccccc1 ?
Result: not met

Ask: Thanks! And Cc1ccc(C(C)(C)C)cc1 ?
Result: not met

Ask: Thanks! And c1ccc(Nc2ccc(-c3ccc(Nc4ccccc4)cc3)cc2)cc1 ?
Result: met

Ask: Thanks! And Cc1ccc(C(C)C)cc1 ?
Result: not met

Ask: Thanks! And CCCN(CCC)CCC ?
Result: not met

Ask: Thanks! And OCCN1CCN(CCO)CC1 ?
Result: met

Ask: Thanks! And CC(C)OC(=O)C=CC(=O)OC(C)C ?
Result: not met

Ask: Thanks! And CCCCCCCCCCCCCCCCCCCCCCCCCCCCCC ?
Result: not met

Ask: Thanks! And O=NN1CN2CN(C1)CN(N=O)C2 ?
Result: met

Ask: Thanks! And ClCC(Br)CBr (stereo not drawn) ?
Result: not met

Ask: Thanks! And CCOC(C)OCC ?
Result: not met

Ask: Thanks! And C[C@]12N[C@H](Cc3ccccc31)c1ccccc12 ?
Result: not met

Ask: Thanks! And O=C(O)c1c(Br)cccc1Br ?
Result: met

Ask: Thanks! And CCCCNC(=O)NS(=O)(=O)c1ccc(N)cc1 ?
Result: met

Ask: Thanks! And O=C(O)c1ccnc(C(=O)O)c1 ?
Result: met

Ask: Thanks! And [N-]=[N+]=Nc1ccc(Br)cc1 ?
Result: not met

Ask: Thanks! And Clc1cc2oc3cc(Cl)c(Cl)c(Cl)c3c2cc1Cl ?
Result: met

Ask: Thanks! And CNc1ccc(O)c2c1C(=O)c1c(O)ccc(NC)c1C2=O ?
Result: met

Ask: Thanks! And CC(Cl)Cl ?
Result: not met
